Recorded values, source patent US9302999B2.

- Tested on: johnsongrass (Sorghum halepense)
- assay comment: Test C pre-/postemergence: johnsongrass
- Type: in vivo
- condition info: Preemergence, 125 g ai/ha; scale 0 to 100, 0 no effect, 100 complete control
measured property: Plant response rating, Johnsongrass
Write no unit; give the number alone.

Record Cc1nn(-c2ccc(C(F)(F)F)cn2)nc1Cc1cccc(C(F)(F)F)c1 has johnsongrass (Sorghum halepense) Plant response rating, Johnsongrass equal to 75

Record CCOc1nn(-c2ccc(C(F)(F)F)cc2)nc1Cc1ccnc(C(F)(F)F)c1 has johnsongrass (Sorghum halepense) Plant response rating, Johnsongrass equal to 20

Record Cc1nn(-c2ccc(F)c(C(F)(F)F)c2)nc1Cc1ccnc(C(F)(F)F)c1 has johnsongrass (Sorghum halepense) Plant response rating, Johnsongrass equal to 90

Record COc1nn(-c2cccc(F)c2)nc1Cc1ccnc(C(F)(F)F)c1 has johnsongrass (Sorghum halepense) Plant response rating, Johnsongrass equal to 100
